growth overview
System: HS 578T breast
Experiment: NCI-60 one-dose screen, 48 h (100 = growth as untreated, 0 = no growth, -100 = all killed)
Conditions: 10 µM unless noted
Method: Growth inhibition of the HS 578T human tumor cell line is measured as a screen for anti-cancer activity. Cells are grown in 96 well plates and exposed to the test compound for 48 hours. Compounds are tested at a single concentration, which is 10^-5 M for most compounds. The reported endpoint is percent growth (GI% or GIPRCNT), where numbers from 0 - 100% represent growth inhibition, and numbers from -100% - 0 represent cell death. For example, a value of 40 represents 60% growth inhibition. […]
Compounds without any hit were thinned out: in the full panel of roughly 83,000, 20% have a hit.
Metric name: growth (%)

- O=[N+]([O-])c1cc(I)cc([N+](=O)[O-])c1: 122
- CCOC(=O)C(Cc1ccc(N(CCCl)CCCl)cc1)NC(=O)C(CC(C)C)NC(C)=O (stereo not drawn): 108
- COC1CC2c3ccccc3C1C(C)=[N+]2C (stereo not drawn): 105
- C=CC[n+]1ccc(-c2cc[n+](CC=C)cc2)cc1: 116
- CC12CCC3C(CCC4Cc5[nH]c6ccccc6c5CC43C)C1CCC2O (stereo not drawn): -8.19
- CC[C@H](C)[C@@H]([C@@H](CC(=O)N1CCC[C@H]1[C@H](OC)[C@@H](C)C(=O)N[C@H](C)[C@@H](O)c1ccccc1)OC)N(C)C(=O)[C@@H](NC(=O)[C@@H](NC)C(C)C)C(C)C: 28.9
- C[Se]C(=O)c1ccccc1OC(C)=O: 35.3
- Cc1cc(N(CCCl)CCCl)ccc1C=Nc1cccnc1: 113
- CC[C@H](C)[C@H](NC(=O)C12C3C4C1C1C2C3C41NC)C(=O)N(C)[C@H](C[C@@H](OC(C)=O)c1nc(C(=O)N[C@@H](Cc2ccccc2)C[C@H](C)C(=O)OC)cs1)C(C)C (stereo partly drawn): 13
- CC(C)(C)C(=O)OCOP(=O)(OCOC(=O)C(C)(C)C)C1CCCN(O)C1=O (stereo not drawn): -8.85
- COc1cc(/C=C\c2cc(OC)c(OC)c(OC)c2)cc(NS(=O)(=O)c2cccc(Cl)c2)c1OC: 45.4
- C[S+]1C=Cc2ccccc2C1c1ccc(Cl)cc1 (stereo not drawn): 77.7
- Cc1ccc(S(=O)(=O)C(Cl)(Cl)Cl)cc1: 96.1
- CCOC(=O)[C@@H](C)C[C@H](Cc1ccccc1)NC(=O)c1csc([C@@H](C[C@H](C(C)C)N(C)C(=O)[C@@H](NC(=O)[C@H]2C[C@H](O)CCN2C)C(C)C)OC(C)=O)n1: 19.4
- CC(=O)OC[C@]1(C)C=C2C(=O)[C@](C)(O)C3(CC3)C(C)=C2[C@H]1OC(=O)N(C)CCN(C)C(=O)OC(C)(C)C: 17.5
- CC(=O)Nc1nc2c(s1)CC[C@@]1(C)C2=CC[C@H]2[C@@H]3CC[C@H](O)[C@@]3(C)CC[C@@H]21: 60.5
- CC[C@H](C)[C@H](NC(=O)c1nccn1C)C(=O)N(C)[C@H](C[C@@H](OC(C)=O)c1nc(C(=O)N[C@@H](Cc2ccccc2)C[C@H](C)C(=O)OC)cs1)C(C)C: 20.6
- CC1=C(CCCNS(C)(=O)=O)C2=C(C)C3(CC3)[C@@](C)(O)C(=O)C2=C1: 57.9
- COC(=O)[C@@H](C)C[C@H](Cc1ccccc1)NC(=O)c1csc([C@@H](C[C@H](C(C)C)N(C)C(=O)[C@@H](NC(=O)[C@H]2CCCN2C)C2CC2)OC(C)=O)n1: 3.36
- CO[C@H](C(=O)O)[C@@H]1Cc2cc3cc(OC4CC(OC5CC(O)C(O)C(C)O5)C(O)C(C)O4)c(C)c(O)c3c(O)c2C(=O)[C@H]1OC1CC(OC2CC(OC3CC(C)(O)C(O)C(C)O3)C(O)C(C)O2)C(O)C(C)O1 (stereo partly drawn): -1.09
- O=C(Nc1ccc([As]=[As]c2ccc(NC(=O)c3ccccc3)cc2)cc1)c1ccccc1 (stereo not drawn): -75.8
- O=C1CN=C(c2ccc(Cl)cc2)c2sccc2N1: 99.6
- O=C(Nc1ccncc1F)c1cn(CC2CC2)c2ccccc12: 98.7
- COc1ccc2nc(NC(=O)COc3cc(/C=C\c4cc(OC)c(OC)c(OC)c4)ccc3OC)sc2c1: -5.92
- Nc1c(F)cc(-c2nc3cc(F)ccc3[se]2)cc1F: 94.7
- OCCNC(Cc1ccccc1)c1ccc2c(c1)OCO2 (stereo not drawn): 103
- CCCOC(=O)N[C@H]1CCc2c(Br)c(OC)c(OC)c(OC)c2-c2ccc(SC)c(=O)cc21: 1.06
- C[N+]12CN3CN(CN(C3)C1)C2: 98
- Cn1cc(-c2csc(-c3cn(CCCCN4CCCCC4)c4ccccc34)n2)c2cccnc21: 61
- COC(=O)[C@@H](C)C[C@H](Cc1ccccc1)NC(=O)c1csc([C@@H](C[C@H](C(C)C)N(C)C(=O)[C@@H](NC(=O)[C@H]2CCCCN2C)C2CCCCC2)OC(C)=O)n1: -6.6
- COC(=O)[C@H](Cc1ccccc1)NC(=O)c1csc([C@@H](C[C@H](C(C)C)N(C)C(=O)[C@@H](NC(=O)[C@H]2CCCN2C)C2CC2)OC(C)=O)n1: 14.6
- Cn1cc(-c2csc(-c3cn(CCCCN4CCCCC4)c4ccc(F)cc34)n2)c2cccnc21: 67.9
- C/C(=C\c1cc(C(F)(F)F)nn1CCNC(=O)OC(C)(C)C)[C@@H]1C[C@@H]2O[C@]2(C)CCC[C@H](C)[C@H](O)[C@@H](C)C(=O)C(C)(C)[C@@H](O)CC(=O)O1: 61.3
